Values were extracted from paper doi:10.1101/2025.03.12.642038.

System Under Test: T1, IRF4 DBD C99R (Homo sapiens, UniProt Q15306 20-132, C99R)
T1 sequence: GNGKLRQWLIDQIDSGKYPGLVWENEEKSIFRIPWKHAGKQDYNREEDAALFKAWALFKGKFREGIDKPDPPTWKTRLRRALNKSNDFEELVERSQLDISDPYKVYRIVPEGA
Experiment Description: SPR two-state kinetic; FP: PBS + 0.05% Tween20, 5 nM DNA, 1 h, room temperature; SPR: Biacore S200, SA chip, protein 0.1-4500 nM, running buffer not given in material; errors are SD
Run Parameters: protein: recombinant; tags: N-terminal His8-linker-His8-TEV, cleaved; label: 3' biotin; hairpin, TTTT loop
Reported Property: pKd
Keep it numeric: pKd is minus log10 of the concentration in mol/L.

[Q] Recall and state the measured pKd for CTTGGTTTCACTTCCTGCGTTTTCGCAGGAAGTGAAACCAAG (structured_DNA) [IRE hairpin (biotin)] .
[A] 6.18
